Test system: BT-549 breast
Assay: NCI tumour cell line growth inhibition, 48 h
VALUE_TYPE: TGI

INSERT INTO assay_data (molecule, val) VALUES
  ('CN(C)CCNC(=O)c1cnn(C)c1[N+](=O)[O-]', '> 100 µM'),
  ('COc1ccc(OC)c(NC(=O)c2c(Cl)c(Cl)c(Cl)c(Cl)c2-c2nc3ccccc3[nH]2)c1', '> 100 µM');

[in] Hello, I am looking for reported TGI with BT-549 breast for Nc1c(C(=O)Nc2ccccn2)sc2nc3c(cc12)CCCCC3 . Could you help?
[out] > 50 µM

[in] Hello, I am looking for reported TGI with BT-549 breast for COc1cc2c(cc1OCCCCCN1CCN(c3cc(=O)oc4ccccc34)CC1)N=C[C@@H]1CCCN1C2=O . Could you help?
[out] 0.778 µM

[in] Hello, I am looking for reported TGI with BT-549 breast for CC(C)(C)OC(=O)NCC(c1c[nH]c2ccc(Br)cc12)c1c[nH]c2ccc(Br)cc12 . Could you help?
[out] 24.8 µM

[in] Hello, I am looking for reported TGI with BT-549 breast for CCOC(=O)c1c(-c2ccccc2)oc(=O)c(Cc2cccc3cccnc23)c1-c1ccccc1 . Could you help?
[out] > 10 µM

[in] Hello, I am looking for reported TGI with BT-549 breast for Cn1c(=O)c2c(ncn2Cc2ccc(O)c([N+](=O)[O-])c2)n(C)c1=O . Could you help?
[out] > 100 µM

[in] Hello, I am looking for reported TGI with BT-549 breast for O=C(NC1CCC(Br)CC1)C1CCCC(S(=O)(=O)NC2CCCCC2)C1 (centres undefined) . Could you help?
[out] 35.4 µM

[in] Hello, I am looking for reported TGI with BT-549 breast for CCOC(=O)/C=C(/OCC)[C@@H]1C(C(=O)c2ccc(Cl)cc2)[C@H]1/C(=C\C(=O)OCC)OCC (some centres undefined) . Could you help?
[out] > 100 µM

Reference source: PubChem BioAssay (NCI)
